# targetOrTestSystem: LHRH binding sites on EFO-27 human ovarian cancer cells (human)
# runDescription: competition with [125I-Tyr8]BRU-2477 on EFO-27 cells
pEC50: −log10 of the molar value.
outcomeMeasure: pEC50

binder	pEC50
XXWSHXWXPX (DO3A10CM on N-terminus; AA1 Dnal2; AA2 Darg; AA6 Darg; AA8 Bpa4; AA10 azaGly-NH2) [BRU-3049]	6.44

a: XHWSHXWXPX (DO3A10CM on N-terminus; AA1 Dnal2; AA6 Darg; AA8 Bpa4; AA10 azaGly-NH2) [BRU-2666]
b: XHWSHXWXPX (DO3A10CM on N-terminus; AA1 Sar; AA6 Darg; AA8 Amfe4; AA10 azaGly-NH2) [BRU-2760]
Input: Between a and b , whose measured pEC50 reads higher? Output the label that corresponds to your choice.
Output: a

// provenance: patent US20120045393A1
